Listing: IC50 of selected compounds
- tgt: SHP2 (full length) (Homo sapiens)
- Construct: SHP2 (full length, diluted to 100 pM final concentration in reaction buffer, BPS bioscience, US); purchased BPS bioscience, US
- Sequence (Q06124 1-593): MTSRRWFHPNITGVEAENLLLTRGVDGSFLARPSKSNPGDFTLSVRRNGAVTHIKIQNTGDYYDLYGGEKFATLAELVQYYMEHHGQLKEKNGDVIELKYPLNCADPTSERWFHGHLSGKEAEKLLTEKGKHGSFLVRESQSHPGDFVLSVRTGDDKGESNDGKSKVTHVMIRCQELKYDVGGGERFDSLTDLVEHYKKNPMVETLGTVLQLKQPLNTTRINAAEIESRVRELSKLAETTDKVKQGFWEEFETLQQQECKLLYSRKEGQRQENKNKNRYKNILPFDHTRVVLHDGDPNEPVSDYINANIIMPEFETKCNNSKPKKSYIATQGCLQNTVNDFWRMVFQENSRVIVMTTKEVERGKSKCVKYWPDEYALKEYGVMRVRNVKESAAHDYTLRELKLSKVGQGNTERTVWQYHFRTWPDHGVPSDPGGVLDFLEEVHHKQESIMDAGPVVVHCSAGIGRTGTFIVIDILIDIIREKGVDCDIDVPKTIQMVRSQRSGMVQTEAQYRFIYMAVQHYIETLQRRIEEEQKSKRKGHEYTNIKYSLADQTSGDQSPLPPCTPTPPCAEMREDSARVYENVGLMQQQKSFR
- test summary: Phosphatase assay (PTPase assay) with DiFMUP substrate
- Assay type: biochemical
- details: IC50 (PTPase aS say, nM), SHP2 activated with SHP2 activating peptide; DiFMUP 80 μM, 2 hours; fluorescence

Here is how some compounds turned out for IC50.
CC1(CN)CCN(c2cnc(Sc3cccc(S(=O)(=O)F)c3Cl)cn2)CC1	3 to 100 nM
CC1(CN)CCN(c2cnc(Sc3ccc4ncn(Cc5ccc(S(=O)(=O)F)cc5)c(=O)c4c3Cl)cn2)CC1	3 to 100 nM
C[C@@H]1OCC2(CCN(c3cnc(Sc4cccc(S(=O)(=O)F)c4Cl)cn3)CC2)[C@@H]1N	< 3 nM
CC1(CN)CCN(c2cnc(Sc3ccc4ncn(Cc5cccc(S(=O)(=O)F)c5)c(=O)c4c3Cl)cn2)CC1	< 3 nM
C[C@@H]1OCC2(CCN(c3cnc(Sc4ccc5ncn(Cc6cccc(S(=O)(=O)F)c6)c(=O)c5c4Cl)cn3)CC2)[C@@H]1N	< 3 nM

Query (compound): `CC1(N)CCN(c2cnc(Sc3cccc(S(=O)(=O)F)c3Cl)cn2)CC1` ; field requested: IC50
3 to 100 nM
